Biological target: RELARELA (p65 homodimer) (Homo sapiens, UniProt Q04206 1-307)
Sequence (Q04206 1-307): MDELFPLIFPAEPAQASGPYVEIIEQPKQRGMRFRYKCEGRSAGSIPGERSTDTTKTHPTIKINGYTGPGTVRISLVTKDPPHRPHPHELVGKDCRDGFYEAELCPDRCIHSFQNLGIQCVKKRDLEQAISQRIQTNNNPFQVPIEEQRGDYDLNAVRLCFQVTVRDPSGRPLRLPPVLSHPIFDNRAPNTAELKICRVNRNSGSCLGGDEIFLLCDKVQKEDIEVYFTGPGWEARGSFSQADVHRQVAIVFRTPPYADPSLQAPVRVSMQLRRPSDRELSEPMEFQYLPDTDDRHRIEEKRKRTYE
Test: protein binding microarray; high values mean tight binding
Conditions: dsDNA, one strand shown
Where binding signal equals or exceeds 0.1 z-score, the correct label is Y; where it does not, the label is N.

seq | discrete label
AGAAAACTCCC | Y
CAAAGAACCCT | N
CAAAATGCCCT | Y
GAAGAGTTCCC | Y
AAGAAATTCCC | Y
GAGGTTCTCCC | N
CGAGGGCCCCC | N
CAGAGACCCCC | N
AAAGACTCCCT | N
GGAATATCCCT | Y
CGGTACTCCCT | Y
AGAAGTCCCCC | Y
CGATATATCCC | Y
CAGTTACTCCT | N
AAGAGCTTCCC | Y
CAATGTTCCCT | Y
GAGAAACCCCC | Y
GAGAAGATCCC | N
GGAAATGTCCC | Y
CGGGTATTCCT | Y
GGAGGTATCCC | N
AAATTGTCCCT | Y
CGATAGCTCCT | N
AAATGACCCCT | N
GAAAACATCCC | Y
AGAGATGCCCT | N
CGGGTTACCCT | Y
GGAGAACCCCC | Y
AAAAACCTCCC | N
GGATTTCTCCT | Y
GAATTAGTCCT | Y
CGATGGATCCT | N
CAAGGTTCCCC | Y
AAGTGAACCCT | N
CGAGTTTCCCT | Y
AAGAAAGCCCT | N
GGGATGGCCCC | N
AGGTGTCCCCC | Y
CAAGATTCCCT | Y
CAAGTGGCCCT | N
AAATAATTCCT | Y
CAAGTTGTCCC | Y
AGGGGATCCCT | Y
GAGTTGGCCCT | N
AAGTATTCCCT | Y
AGGAATATCCC | Y
GAATGTTTCCC | Y
AGGGACGTCCT | Y
GAGTGGATCCT | N
AAATTACTCCC | Y
GAGTGTACCCC | Y
AGATAAGTCCC | Y
GGAAGCCTCCC | N
AAATAACCCCC | Y
AAAATACCCCT | Y
AAGGATACCCC | N
AGATTATCCCT | N
AGATGGTCCCC | N
GGATAAATCCC | Y
AGGATGTTCCC | Y
GGATGTCCCCC | Y
GAGGAGCCCCC | N
AGAAAGTCCCC | Y
AGGGTTGCCCT | N
CAGGACACCCT | N
GAGTAATTCCT | Y
GAAAAGTCCCT | Y
AAGTTAGTCCT | N
AAAAGGTCCCC | Y
CGAGATTTCCC | Y
GAAAACCCCCT | Y
CGATGTGTCCC | Y
AGGTGTGCCCT | N
GGGGTCATCCT | N
CGAGTGACCCT | N
GAAGGCGTCCC | N
GAATGAGCCCT | N
GGGATCGTCCT | Y
CGGGGGTCCCT | N

----------
Biological target: C-Rel subunit;p52 subunit (Homo sapiens;Homo sapiens, UniProt Q04864;Q00653 1-285;4-332)
Sequence 1: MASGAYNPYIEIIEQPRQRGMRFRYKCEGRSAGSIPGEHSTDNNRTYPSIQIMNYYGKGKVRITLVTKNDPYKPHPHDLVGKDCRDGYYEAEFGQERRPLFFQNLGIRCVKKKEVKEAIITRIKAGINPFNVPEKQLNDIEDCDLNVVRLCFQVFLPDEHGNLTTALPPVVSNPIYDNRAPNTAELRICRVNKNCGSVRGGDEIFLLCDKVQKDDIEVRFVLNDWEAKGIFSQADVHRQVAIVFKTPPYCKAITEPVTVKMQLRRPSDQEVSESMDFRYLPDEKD
Sequence 2: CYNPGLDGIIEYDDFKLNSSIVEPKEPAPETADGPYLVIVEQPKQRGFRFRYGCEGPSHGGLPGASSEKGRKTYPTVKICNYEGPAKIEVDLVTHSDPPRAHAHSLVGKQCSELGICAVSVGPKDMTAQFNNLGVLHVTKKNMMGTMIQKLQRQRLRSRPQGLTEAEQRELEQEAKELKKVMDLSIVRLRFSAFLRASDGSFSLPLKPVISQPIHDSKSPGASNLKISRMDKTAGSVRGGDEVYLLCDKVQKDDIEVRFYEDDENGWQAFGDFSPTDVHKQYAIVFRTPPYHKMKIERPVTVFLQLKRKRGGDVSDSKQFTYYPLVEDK
Assay: protein binding microarray; high values mean tight binding
Conditions: dsDNA, one strand shown
Each entry falls in a class defined on binding signal; the bands are bottom bin: < -0.6 z-score; middle bin: ≥ -0.6 z-score and < 0.4 z-score; top bin: ≥ 0.4 z-score

seq | experimental target | discrete label
CGGTTATCCCT | C-Rel subunit;p52 subunit (Homo sapiens;Homo sapiens, UniProt Q04864;Q00653 1-285;4-332) | middle bin
CGGAGAGTCCT | C-Rel subunit;p52 subunit (Homo sapiens;Homo sapiens, UniProt Q04864;Q00653 1-285;4-332) | middle bin
CGAATGTCCCC | C-Rel subunit;p52 subunit (Homo sapiens;Homo sapiens, UniProt Q04864;Q00653 1-285;4-332) | top bin
CGGAAGCTCCT | C-Rel subunit;p52 subunit (Homo sapiens;Homo sapiens, UniProt Q04864;Q00653 1-285;4-332) | bottom bin
CGGTGCCTCCT | C-Rel subunit;p52 subunit (Homo sapiens;Homo sapiens, UniProt Q04864;Q00653 1-285;4-332) | bottom bin
AAGGGACCCCC | C-Rel subunit;p52 subunit (Homo sapiens;Homo sapiens, UniProt Q04864;Q00653 1-285;4-332) | top bin
CAGTTCTTCCC | C-Rel subunit;p52 subunit (Homo sapiens;Homo sapiens, UniProt Q04864;Q00653 1-285;4-332) | middle bin
AAGAATGTCCC | C-Rel subunit;p52 subunit (Homo sapiens;Homo sapiens, UniProt Q04864;Q00653 1-285;4-332) | top bin
GAGTGCCCCCT | C-Rel subunit;p52 subunit (Homo sapiens;Homo sapiens, UniProt Q04864;Q00653 1-285;4-332) | top bin
AAGGTACTCCC | C-Rel subunit;p52 subunit (Homo sapiens;Homo sapiens, UniProt Q04864;Q00653 1-285;4-332) | top bin
GGGTGCTCCCT | C-Rel subunit;p52 subunit (Homo sapiens;Homo sapiens, UniProt Q04864;Q00653 1-285;4-332) | middle bin
CAGGAGGTCCT | C-Rel subunit;p52 subunit (Homo sapiens;Homo sapiens, UniProt Q04864;Q00653 1-285;4-332) | middle bin
GAATTCCTCCC | C-Rel subunit;p52 subunit (Homo sapiens;Homo sapiens, UniProt Q04864;Q00653 1-285;4-332) | middle bin
AGAAACGTCCT | C-Rel subunit;p52 subunit (Homo sapiens;Homo sapiens, UniProt Q04864;Q00653 1-285;4-332) | bottom bin
AAGTAGACCCT | C-Rel subunit;p52 subunit (Homo sapiens;Homo sapiens, UniProt Q04864;Q00653 1-285;4-332) | bottom bin
GAGAGACTCCT | C-Rel subunit;p52 subunit (Homo sapiens;Homo sapiens, UniProt Q04864;Q00653 1-285;4-332) | bottom bin

Origin of values: paper PMC3218832
